Can you tell me IC50 for the items I'm about to list?
- test system: Sodium-dependent serotonin transporter (Homo sapiens)
- Sequence (P31645 whole entry): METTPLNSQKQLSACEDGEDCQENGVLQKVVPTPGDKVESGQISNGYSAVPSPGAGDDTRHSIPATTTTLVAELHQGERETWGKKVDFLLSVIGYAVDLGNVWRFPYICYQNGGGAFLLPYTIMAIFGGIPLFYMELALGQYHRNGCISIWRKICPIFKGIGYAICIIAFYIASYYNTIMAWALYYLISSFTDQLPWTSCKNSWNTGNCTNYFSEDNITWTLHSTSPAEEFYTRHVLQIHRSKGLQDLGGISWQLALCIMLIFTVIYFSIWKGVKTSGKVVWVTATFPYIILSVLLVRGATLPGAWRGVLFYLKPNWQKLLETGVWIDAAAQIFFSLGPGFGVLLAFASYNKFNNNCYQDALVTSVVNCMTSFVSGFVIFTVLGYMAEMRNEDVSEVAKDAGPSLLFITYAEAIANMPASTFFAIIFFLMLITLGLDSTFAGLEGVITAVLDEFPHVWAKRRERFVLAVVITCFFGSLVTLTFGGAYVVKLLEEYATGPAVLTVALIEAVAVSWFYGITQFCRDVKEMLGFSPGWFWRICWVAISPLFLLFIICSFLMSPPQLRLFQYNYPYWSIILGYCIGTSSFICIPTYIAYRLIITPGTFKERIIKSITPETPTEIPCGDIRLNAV
- experiment notes: Inhibition of human SERT expressed in HEK293 cells incubated for 30 mins prior to fluorescent substrate addition measured after 30 mins by fluorescent dye uptake assay

# count of solved cases: 3
Memo: `Cc1nc2c(s1)CC[C@H]2C(=O)Nc1ccc(C[C@@H]2CC[C@H]([C@H](O)c3cccnc3)N2)cc1` , reported IC50: 89 nM

Memo: `O=C(Nc1ccc(C[C@@H]2CC[C@H]([C@H](O)c3cccnc3)N2)cc1)[C@@H]1CCc2scnc21` , reported IC50: 422 nM

Memo: Nc1nc(CC(=O)Nc2ccc(C[C@@H]3CCC([C@H](O)c4ccccc4)N3)cc2)cs1 (single isomer, unassigned) , reported IC50: 1610 nM

Record IC50 for all entries; do not skip any.
1. O=C(Nc1ccc(C[C@@H]2CC[C@H]([C@H](O)c3cccnc3)N2)cc1)[C@@H]1CCc2ccnn21
2. Nc1nc2c(s1)CC[C@H]2C(=O)Nc1ccc(C[C@@H]2CC[C@H]([C@H](O)c3ccccc3)N2)cc1

[out]
["898 nM", "1220 nM"]

---

- experiment notes: Plasma clearance in Beagle dog at 1 mg/kg, iv and 2 mg/kg, po
- Format: ADME, organism-based, Canis lupus familiaris
Can you tell me clearance for the items I'm about to list?

Memo: `O=C(Nc1ccc(C[C@@H]2CC[C@H]([C@H](O)c3cccnc3)N2)cc1)[C@@H]1CCc2ccnn21` , reported clearance: 34 mL/min/kg

---
Memo: `O=C(Nc1ccc(C[C@@H]2CC[C@H]([C@H](O)c3cccnc3)N2)cc1)[C@@H]1CCc2scnc21` , reported clearance: 27 mL/min/kg

---

Measured pIC50 on Voltage-gated inwardly rectifying potassium channel KCNH2 (Homo sapiens) follows.
Sequence (Q12809 whole entry): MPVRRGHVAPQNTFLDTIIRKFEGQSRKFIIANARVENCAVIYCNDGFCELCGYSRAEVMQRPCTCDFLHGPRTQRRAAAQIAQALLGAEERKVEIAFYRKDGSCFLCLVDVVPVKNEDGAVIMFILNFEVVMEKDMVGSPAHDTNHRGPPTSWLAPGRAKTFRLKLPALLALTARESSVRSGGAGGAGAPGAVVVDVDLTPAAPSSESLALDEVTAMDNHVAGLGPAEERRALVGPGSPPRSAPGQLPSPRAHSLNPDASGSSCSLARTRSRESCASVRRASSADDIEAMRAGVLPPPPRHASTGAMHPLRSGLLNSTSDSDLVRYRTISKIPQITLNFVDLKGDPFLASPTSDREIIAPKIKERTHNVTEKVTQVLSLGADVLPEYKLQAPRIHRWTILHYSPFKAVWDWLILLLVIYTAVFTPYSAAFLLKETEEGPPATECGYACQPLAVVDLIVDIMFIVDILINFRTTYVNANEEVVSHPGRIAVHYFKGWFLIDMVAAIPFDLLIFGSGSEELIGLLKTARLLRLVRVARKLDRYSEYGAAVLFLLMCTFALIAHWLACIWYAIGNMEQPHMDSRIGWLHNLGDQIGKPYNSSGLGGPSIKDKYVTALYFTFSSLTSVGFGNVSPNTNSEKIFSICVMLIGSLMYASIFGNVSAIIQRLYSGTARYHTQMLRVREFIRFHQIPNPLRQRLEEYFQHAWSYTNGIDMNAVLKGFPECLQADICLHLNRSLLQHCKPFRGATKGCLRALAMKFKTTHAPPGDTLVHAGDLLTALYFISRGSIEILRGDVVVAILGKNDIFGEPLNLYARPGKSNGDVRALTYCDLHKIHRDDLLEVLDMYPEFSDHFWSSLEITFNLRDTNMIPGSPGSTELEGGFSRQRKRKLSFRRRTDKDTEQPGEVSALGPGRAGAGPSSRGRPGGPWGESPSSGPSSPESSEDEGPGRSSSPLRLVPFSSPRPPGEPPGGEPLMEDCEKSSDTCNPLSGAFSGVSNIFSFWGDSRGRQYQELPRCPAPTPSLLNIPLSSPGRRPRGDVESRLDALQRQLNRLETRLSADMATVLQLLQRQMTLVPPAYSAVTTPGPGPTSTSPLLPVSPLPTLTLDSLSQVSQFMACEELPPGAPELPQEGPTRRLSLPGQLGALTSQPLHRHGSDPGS
Answers are plain numbers, as −log10 of the molar value.

# count of solved cases: 3
pIC50 on Voltage-gated inwardly rectifying potassium channel KCNH2 (Homo sapiens) for `Nc1nc2c(s1)CC[C@H]2C(=O)Nc1ccc(C[C@@H]2CC[C@H]([C@H](O)c3cccc(F)c3)N2)cc1` is 5.40

pIC50 on Voltage-gated inwardly rectifying potassium channel KCNH2 (Homo sapiens) for `Nc1nc2c(s1)CC[C@H]2C(=O)Nc1ccc(C[C@@H]2CC[C@H]([C@H](O)c3ccc(F)cc3)N2)cc1` is 5.25

pIC50 on Voltage-gated inwardly rectifying potassium channel KCNH2 (Homo sapiens) for `Nc1nc2c(s1)CC[C@H]2C(=O)Nc1ccc(C[C@@H]2CC[C@H]([C@H](O)c3ccccc3)N2)cc1` is 4.90

Now take the following compound into account.
pIC50 on Voltage-gated inwardly rectifying potassium channel KCNH2 (Homo sapiens) for `Cc1nc2c(s1)CC[C@H]2C(=O)Nc1ccc(C[C@@H]2CC[C@H]([C@H](O)c3cccnc3)N2)cc1` is 4.92

---

- test system: Voltage-dependent L-type calcium channel subunit alpha-1C (Homo sapiens)
- Sequence (Q13936 whole entry): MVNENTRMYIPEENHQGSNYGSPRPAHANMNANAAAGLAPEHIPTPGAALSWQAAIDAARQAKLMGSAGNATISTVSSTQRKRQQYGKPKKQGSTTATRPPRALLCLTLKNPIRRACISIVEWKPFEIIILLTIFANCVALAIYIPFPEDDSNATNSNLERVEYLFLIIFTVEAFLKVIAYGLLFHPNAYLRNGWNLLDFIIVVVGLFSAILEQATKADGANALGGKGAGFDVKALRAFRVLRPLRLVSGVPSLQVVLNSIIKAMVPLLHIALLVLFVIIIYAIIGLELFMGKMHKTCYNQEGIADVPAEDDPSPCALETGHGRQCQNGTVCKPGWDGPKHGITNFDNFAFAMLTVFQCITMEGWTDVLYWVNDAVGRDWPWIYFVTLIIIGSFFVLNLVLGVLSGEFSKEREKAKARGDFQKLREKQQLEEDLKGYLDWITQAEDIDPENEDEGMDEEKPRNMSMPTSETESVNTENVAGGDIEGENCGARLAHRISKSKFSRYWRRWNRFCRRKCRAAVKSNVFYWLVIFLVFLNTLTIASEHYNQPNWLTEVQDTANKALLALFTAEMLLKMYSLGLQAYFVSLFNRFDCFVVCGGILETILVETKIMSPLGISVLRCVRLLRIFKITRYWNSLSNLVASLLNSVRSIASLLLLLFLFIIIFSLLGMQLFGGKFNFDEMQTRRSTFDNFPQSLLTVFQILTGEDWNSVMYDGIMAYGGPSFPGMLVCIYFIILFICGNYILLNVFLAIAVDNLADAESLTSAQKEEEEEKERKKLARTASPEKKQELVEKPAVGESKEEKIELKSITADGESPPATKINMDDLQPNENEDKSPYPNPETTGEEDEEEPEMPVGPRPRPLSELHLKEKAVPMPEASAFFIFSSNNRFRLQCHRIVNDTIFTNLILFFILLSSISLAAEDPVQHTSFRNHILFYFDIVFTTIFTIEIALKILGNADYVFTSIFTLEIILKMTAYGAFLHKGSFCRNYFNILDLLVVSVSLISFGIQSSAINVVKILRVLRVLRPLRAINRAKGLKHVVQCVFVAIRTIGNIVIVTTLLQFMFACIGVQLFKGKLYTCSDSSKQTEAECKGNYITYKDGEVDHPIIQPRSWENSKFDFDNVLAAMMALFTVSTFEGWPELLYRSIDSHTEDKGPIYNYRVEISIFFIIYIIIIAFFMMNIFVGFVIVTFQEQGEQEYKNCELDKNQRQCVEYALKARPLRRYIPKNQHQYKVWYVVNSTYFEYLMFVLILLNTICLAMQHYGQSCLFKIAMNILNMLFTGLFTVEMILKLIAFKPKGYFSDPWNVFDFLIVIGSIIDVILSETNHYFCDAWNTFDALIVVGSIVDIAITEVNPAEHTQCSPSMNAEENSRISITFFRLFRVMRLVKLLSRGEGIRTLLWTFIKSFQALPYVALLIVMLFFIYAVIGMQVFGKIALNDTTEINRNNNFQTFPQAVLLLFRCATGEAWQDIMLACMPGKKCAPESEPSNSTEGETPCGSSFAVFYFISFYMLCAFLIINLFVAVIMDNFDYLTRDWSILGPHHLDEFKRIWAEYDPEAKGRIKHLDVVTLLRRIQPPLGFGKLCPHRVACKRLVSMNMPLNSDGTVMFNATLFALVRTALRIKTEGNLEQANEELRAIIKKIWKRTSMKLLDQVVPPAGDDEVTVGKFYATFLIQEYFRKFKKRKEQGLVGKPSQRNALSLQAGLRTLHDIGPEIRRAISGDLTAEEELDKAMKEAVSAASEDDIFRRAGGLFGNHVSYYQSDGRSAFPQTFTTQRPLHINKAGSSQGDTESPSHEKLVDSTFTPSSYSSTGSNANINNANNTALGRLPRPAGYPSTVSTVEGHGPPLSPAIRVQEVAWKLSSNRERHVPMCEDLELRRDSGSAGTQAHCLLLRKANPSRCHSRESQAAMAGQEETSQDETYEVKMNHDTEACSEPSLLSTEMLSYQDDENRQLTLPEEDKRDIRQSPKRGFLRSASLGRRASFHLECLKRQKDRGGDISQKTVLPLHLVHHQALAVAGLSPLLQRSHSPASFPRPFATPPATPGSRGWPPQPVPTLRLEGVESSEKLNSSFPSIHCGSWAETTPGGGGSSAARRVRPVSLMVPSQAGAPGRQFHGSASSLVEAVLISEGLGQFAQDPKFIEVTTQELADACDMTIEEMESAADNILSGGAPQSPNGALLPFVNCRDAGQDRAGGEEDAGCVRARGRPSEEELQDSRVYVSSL
- experiment notes: Displacement of [3H]-diltiazem from human CaV1.2
Can you tell me IC50 for the items I'm about to list?

IC50 on Voltage-dependent L-type calcium channel subunit alpha-1C (Homo sapiens) for Nc1nc(CC(=O)Nc2ccc(C[C@@H]3CCC([C@H](O)c4ccccc4)N3)cc2)cs1 (single isomer, unassigned) is 8.2 µM

IC50 on Voltage-dependent L-type calcium channel subunit alpha-1C (Homo sapiens) for `Nc1nc2c(s1)CC[C@H]2C(=O)Nc1ccc(C[C@@H]2CC[C@H]([C@H](O)c3ccccc3)N2)cc1` is > 30 µM

IC50 on Voltage-dependent L-type calcium channel subunit alpha-1C (Homo sapiens) for `Cc1nc2c(s1)CC[C@H]2C(=O)Nc1ccc(C[C@@H]2CC[C@H]([C@H](O)c3cccnc3)N2)cc1` is > 30 µM

IC50 on Voltage-dependent L-type calcium channel subunit alpha-1C (Homo sapiens) for `O=C(Nc1ccc(C[C@@H]2CC[C@H]([C@H](O)c3cccnc3)N2)cc1)[C@@H]1CCc2ccnn21` is > 30 µM

Now take the following compound into account.
IC50 on Voltage-dependent L-type calcium channel subunit alpha-1C (Homo sapiens) for `O=C(Nc1ccc(C[C@@H]2CC[C@H]([C@H](O)c3cccnc3)N2)cc1)[C@@H]1CCc2scnc21` is > 30 µM
